Value source: paper PMC10922102

# log10 of EC50 at 72 h per entry
- test.details: in vitro
- condition.parameters: human
Answers are given as log10 of EC50 at 72 h in µM.

Please review the entries below; each comes with its answer.
INSERT INTO measurements (compound, experimental_result) VALUES
  ('CN(Cc1cnc2nc(N)nc(N)c2n1)c1ccc(C(=O)N[C@@H](CCC(=O)NCCCCCCCCNc2cccc3c2C(=O)N(C2CCC(=O)NC2=O)C3=O)C(=O)O)cc1 (some centres unmarked) [Versortrexate (VSTX), 6]', 1.33),
  ('CN(Cc1cnc2nc(N)nc(N)c2n1)c1ccc(C(=O)N[C@@H](CCC(=O)NCCOCCOCCOCCNC(=O)COc2cccc3c2C(=O)N(C2CCC(=O)NC2=O)C3=O)C(=O)O)cc1 (some centres unmarked)', 0.45),
  ('COC(=O)[C@H](CCC(=O)NCCCCCCCCNc1cccc2c1C(=O)N(C1CCC(=O)NC1=O)C2=O)NC(=O)c1ccc(N(C)Cc2cnc3nc(N)nc(N)c3n2)cc1 (some centres unmarked)', 0.76),
  ('CN(Cc1cnc2nc(N)nc(N)c2n1)c1ccc(C(=O)N[C@@H](CC(F)C(=O)O)C(=O)O)cc1 (some centres unmarked) [FMTX, 2, reference compound]', 0.02);

Could you now consider this next compound?
Exercise: Query: log10 of EC50 at 72 h; subject: CN(Cc1cnc2nc(N)nc(N)c2n1)c1ccc(C(=O)N[C@@H](CCC(=O)O)C(=O)O)cc1 [MTX, 1, Methotrexate, reference compound]
Key: -1.21

---

- study.system: recombinant human DHFR•NADPH complex (Homo sapiens, UniProt P00374)
- test.details: Fluorescence polarization
readout.kind: pIC50
Units for pIC50: none; it is -log10 of a concentration expressed in mol/L.

Please review the entries below; each comes with its answer.
INSERT INTO results (compound, readout_kind, experimental_result) VALUES
  ('CN(Cc1cnc2nc(N)nc(N)c2n1)c1ccc(C(=O)N[C@@H](CCC(=O)NCCOCCOCCOCCNC(=O)COc2cccc3c2C(=O)N(C2CCC(=O)NC2=O)C3=O)C(=O)O)cc1 (some centres unmarked)', 'pIC50', 7.36),
  ('CN(Cc1cnc2nc(N)nc(N)c2n1)c1ccc(C(=O)N[C@@H](CC(F)C(=O)O)C(=O)O)cc1 (some centres unmarked) [FMTX, 2, reference compound]', 'pIC50', 7.03),
  ('CN1C(=O)CCC(N2C(=O)c3cccc(NCCCCCCCCNC(=O)CC[C@H](NC(=O)c4ccc(N(C)Cc5cnc6nc(N)nc(N)c6n5)cc4)C(=O)O)c3C2=O)C1=O (some centres unmarked)', 'pIC50', 7.60),
  ('CN(Cc1cnc2nc(N)nc(N)c2n1)c1ccc(C(=O)N[C@@H](CCC(=O)NCCCCCCCCNc2cccc3c2C(=O)N(C2CCC(=O)NC2=O)C3=O)C(=O)O)cc1 (some centres unmarked) [Versortrexate (VSTX), 6]', 'pIC50', 7.07);

Exercise: Record CN(Cc1cnc2nc(N)nc(N)c2n1)c1ccc(C(=O)NC(CCC(=O)O)C(=O)NCCCCCCCCNc2cccc3c2C(=O)N(C2CCC(=O)NC2=O)C3=O)cc1 (centres unmarked) : what is its pIC50 with recombinant human DHFR•NADPH complex (Homo sapiens, UniProt P00374)?
Key: 5.14

---

- study.system: DHFR-HiBiT (Homo sapiens, UniProt P00374)
- test.details: DHFR HiBiT assay
- Format: cell-based
- condition.parameters: HBL1, read-out: Assay max response (%)
# Emax per entry
Numeric answer only, unit % assumed.

Exercise: Query: Emax; subject: COC(=O)[C@H](CCC(=O)NCCCCCCCCNc1cccc2c1C(=O)N(C1CCC(=O)NC1=O)C2=O)NC(=O)c1ccc(N(C)Cc2cnc3nc(N)nc(N)c3n2)cc1 (stereo partly drawn) [VSTX-ME, 9]
Key: -71.9

Exercise: Query: Emax; subject: CN1C(=O)CCC(N2C(=O)c3cccc(NCCCCCCCCNC(=O)CC[C@H](NC(=O)c4ccc(N(C)Cc5cnc6nc(N)nc(N)c6n5)cc4)C(=O)O)c3C2=O)C1=O (stereo partly drawn) [VSTX-IE3L, 7]
Key: 39.3

Exercise: Query: Emax; subject: CN(Cc1cnc2nc(N)nc(N)c2n1)c1ccc(C(=O)N[C@@H](CCC(=O)NCCOCCOCCOCCNC(=O)COc2cccc3c2C(=O)N(C2CCC(=O)NC2=O)C3=O)C(=O)O)cc1 (stereo partly drawn) [Compound 3]
Key: -40.6

---

- System: HBL-1 cells
- condition.parameters: human, 72 h
Classify: MET when Cytotoxicity efficacy (viability, %CTG) is strictly less than -50%; NOT MET when Cytotoxicity efficacy (viability, %CTG) is not.

Use these answered entries as a reference point.
INSERT INTO results (compound, category_label) VALUES
  ('COC(=O)[C@H](CCC(=O)NCCCCCCCCNc1cccc2c1C(=O)N(C1CCC(=O)NC1=O)C2=O)NC(=O)c1ccc(N(C)Cc2cnc3nc(N)nc(N)c3n2)cc1 (stereo partly shown)', 'NOT MET'),
  ('CN(Cc1cnc2nc(N)nc(N)c2n1)c1ccc(C(=O)NC(CCC(=O)O)C(=O)NCCCCCCCCNc2cccc3c2C(=O)N(C2CCC(=O)NC2=O)C3=O)cc1 (stereo not shown)', 'NOT MET'),
  ('CN(Cc1cnc2nc(N)nc(N)c2n1)c1ccc(C(=O)N[C@@H](CC(F)C(=O)O)C(=O)O)cc1 (stereo partly shown) [FMTX, 2, reference compound]', 'MET'),
  ('CN(Cc1cnc2nc(N)nc(N)c2n1)c1ccc(C(=O)N[C@@H](CCC(=O)NCCCCCCCCNc2cccc3c2C(=O)N(C2CCC(=O)NC2=O)C3=O)C(=O)O)cc1 (stereo partly shown) [Versortrexate (VSTX), 6]', 'NOT MET'),
  ('CN1C(=O)CCC(N2C(=O)c3cccc(NCCCCCCCCNC(=O)CC[C@H](NC(=O)c4ccc(N(C)Cc5cnc6nc(N)nc(N)c6n5)cc4)C(=O)O)c3C2=O)C1=O (stereo partly shown)', 'NOT MET');

Exercise: In plain terms, does CN(Cc1cnc2nc(N)nc(N)c2n1)c1ccc(C(=O)N[C@@H](CCC(=O)NCCOCCOCCOCCNC(=O)COc2cccc3c2C(=O)N(C2CCC(=O)NC2=O)C3=O)C(=O)O)cc1 (stereo partly shown) come in under -50% for Cytotoxicity efficacy (viability, %CTG)?
Key: MET

Exercise: In plain terms, does CN(Cc1cnc2nc(N)nc(N)c2n1)c1ccc(C(=O)N[C@@H](CCC(=O)O)C(=O)O)cc1 [MTX, 1, Methotrexate, reference compound] come in under -50% for Cytotoxicity efficacy (viability, %CTG)?
Key: MET

---

- study.system: DHFR-HiBiT (Homo sapiens, UniProt P00374)
- test.details: DHFR HiBiT assay
- Type: cell-based
- condition.parameters: HBL1, read-out: Assay max response (%)
readout.kind: Emax (%)
Numeric answer only, unit % assumed.

INSERT INTO measurements (compound, readout_kind, measurement_unit, experimental_result) VALUES
  ('CN(Cc1cnc2nc(N)nc(N)c2n1)c1ccc(C(=O)N[C@@H](CC(F)C(=O)O)C(=O)O)cc1 (stereo partly drawn) [FMTX, 2, reference compound]', 'Emax', '%', 53.9),
  ('CN(Cc1cnc2nc(N)nc(N)c2n1)c1ccc(C(=O)NC(CCC(=O)O)C(=O)NCCCCCCCCNc2cccc3c2C(=O)N(C2CCC(=O)NC2=O)C3=O)cc1 (stereo not drawn) [VSTX-αE3L, 8]', 'Emax', '%', 21.2);

Could you now consider this next compound?
Exercise: Query: Emax; subject: CN(Cc1cnc2nc(N)nc(N)c2n1)c1ccc(C(=O)N[C@@H](CCC(=O)NCCCCCCCCNc2cccc3c2C(=O)N(C2CCC(=O)NC2=O)C3=O)C(=O)O)cc1 (stereo partly drawn) [Versortrexate (VSTX), 6]
Key: -70.1
